Exercise: state measured IC50 for each of the molecules provided.
Target: various mutants of kinase EGFR (BaF3 cell lines stably transfected with kinase) (Homo sapiens, UniProt P00533, C797S/L858R/T790M)
Construct: expressed in transfected cells; host or cells: BaF3
Sequence (P00533 25-1210 T790M/C797S/L858R): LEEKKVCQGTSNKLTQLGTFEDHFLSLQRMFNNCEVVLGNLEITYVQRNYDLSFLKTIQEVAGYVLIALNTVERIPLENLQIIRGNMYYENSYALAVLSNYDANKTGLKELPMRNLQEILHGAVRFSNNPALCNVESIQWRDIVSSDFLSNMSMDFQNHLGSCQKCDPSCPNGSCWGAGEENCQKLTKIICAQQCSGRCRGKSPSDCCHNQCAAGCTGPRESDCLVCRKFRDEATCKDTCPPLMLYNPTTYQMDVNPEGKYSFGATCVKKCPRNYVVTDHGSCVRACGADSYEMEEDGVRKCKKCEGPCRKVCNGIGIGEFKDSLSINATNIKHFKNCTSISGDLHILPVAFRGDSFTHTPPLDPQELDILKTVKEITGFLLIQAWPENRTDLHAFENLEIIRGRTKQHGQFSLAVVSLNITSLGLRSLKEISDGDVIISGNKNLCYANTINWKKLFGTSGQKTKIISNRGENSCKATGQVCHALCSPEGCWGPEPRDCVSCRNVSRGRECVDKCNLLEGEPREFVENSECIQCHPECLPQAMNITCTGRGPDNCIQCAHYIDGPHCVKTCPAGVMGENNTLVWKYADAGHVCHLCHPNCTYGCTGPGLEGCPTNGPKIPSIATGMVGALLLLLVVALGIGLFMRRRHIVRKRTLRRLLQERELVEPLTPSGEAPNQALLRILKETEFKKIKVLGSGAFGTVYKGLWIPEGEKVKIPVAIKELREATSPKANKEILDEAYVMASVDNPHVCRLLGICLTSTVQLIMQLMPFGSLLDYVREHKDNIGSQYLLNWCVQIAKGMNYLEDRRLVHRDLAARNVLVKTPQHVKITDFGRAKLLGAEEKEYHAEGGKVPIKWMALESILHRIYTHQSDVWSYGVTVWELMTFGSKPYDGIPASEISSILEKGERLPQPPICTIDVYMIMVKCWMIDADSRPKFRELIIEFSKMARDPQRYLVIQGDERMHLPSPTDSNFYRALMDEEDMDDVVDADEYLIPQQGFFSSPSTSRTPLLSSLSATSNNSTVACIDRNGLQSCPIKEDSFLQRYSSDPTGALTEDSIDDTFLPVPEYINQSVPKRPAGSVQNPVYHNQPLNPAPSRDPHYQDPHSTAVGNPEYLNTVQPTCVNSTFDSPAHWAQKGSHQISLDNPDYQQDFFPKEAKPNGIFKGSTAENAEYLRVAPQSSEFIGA
Assay: Growth inhibitory activity of compounds on BaF3 cell lines stably transfected with kinase (MTS, 48 h)
Type: cell-based
Conditions: BaF3 cells stably transfected with EGFR L858R/T790M/C797S, read-out: IC50, growth inhibition, L858R/T790M/C797S

Solved cases below.
molecule=COc1cc(N2CCN(C)CC2)c(C)cc1Nc1ncc(Cl)c(Nc2ccc3nccnc3c2N(C2CC2)S(C)(=O)=O)n1 endpoint=IC50 observedresult="≤ 0.05 µM"
molecule="CCc1cc(Nc2ncc(Cl)c(Nc3ccc4nccnc4c3N(C)S(=O)(=O)C(F)(F)F)n2)c(OC)cc1N1CCC(N(C)C)C1 (stereo not drawn)" endpoint=IC50 observedresult="0.05 to 0.5 µM"
molecule=COc1cc(N2CCC(N(C)C)CC2)c(C)cc1Nc1ncc(Br)c(Nc2ccc3nccnc3c2N(C)S(=O)(=O)C2CC2)n1 endpoint=IC50 observedresult="≤ 0.05 µM"
molecule=COc1cc(N2CCN(C)CC2)c(C)cc1Nc1ncc([N+](=O)[O-])c(Nc2ccc3nccnc3c2N(C)S(C)(=O)=O)n1 endpoint=IC50 observedresult="0.05 to 0.5 µM"

Provide IC50 values for the following items, in order.
1. CC1CN(C)CCc2ccc(Nc3ncc(Br)c(Nc4ccc5nccnc5c4N(C)S(C)(=O)=O)n3)cc21 (stereo not drawn)
2. CCc1cc(Nc2ncc(Cl)c(Nc3ccc4nccnc4c3N(C)S(C)(=O)=O)n2)c(OC(F)(F)F)cc1N1CCC(N2CCN(C)CC2)CC1

Found:
1. ≤ 0.05 µM
2. ≤ 0.05 µM
